Molecular target: Cannabinoid receptor 1 (Rattus norvegicus)
Sequence (P20272 whole entry): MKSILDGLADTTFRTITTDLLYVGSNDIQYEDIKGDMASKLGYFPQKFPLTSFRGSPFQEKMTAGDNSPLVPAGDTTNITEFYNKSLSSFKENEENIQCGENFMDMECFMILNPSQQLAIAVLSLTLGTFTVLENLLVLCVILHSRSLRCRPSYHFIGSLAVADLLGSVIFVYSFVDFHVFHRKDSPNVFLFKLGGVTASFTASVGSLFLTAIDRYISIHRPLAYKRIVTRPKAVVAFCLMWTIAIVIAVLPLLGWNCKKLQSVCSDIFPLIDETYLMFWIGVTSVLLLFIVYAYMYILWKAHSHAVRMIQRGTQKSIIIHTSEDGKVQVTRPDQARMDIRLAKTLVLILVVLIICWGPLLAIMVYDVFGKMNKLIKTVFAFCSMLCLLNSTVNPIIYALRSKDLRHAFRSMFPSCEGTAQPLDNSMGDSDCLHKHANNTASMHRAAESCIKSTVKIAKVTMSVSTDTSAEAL
Kindly supply the reported pIC50 values for the records listed here.
Give bare numbers, as −log10 of the molar value.

• CCC(CC)c1nnc(-c2nn(-c3ccc(Cl)cc3Cl)c(-c3ccc(Cl)cc3)c2C)o1 = 7.50

# per-item lookup of pIC50; items listed below
1. CC(C)(C)c1nnc(-c2nn(-c3ccc(Cl)cc3Cl)c(-c3ccc(Cl)cc3)c2C2CC2)o1
2. FC(F)(F)C1(c2nnc(-c3nn(-c4ccc(Cl)cc4Cl)c(-c4ccc(Cl)cc4)c3Cn3cncn3)o2)CC1

Return:
1. 7.52
2. 8.82

====

Test: Selectivity ratio of IC50 for human CB2 receptor to IC50 for Sprague-Dawley rat CB1 receptor
Answer each item with its documented Ratio IC50.
Numbers only.

Please look at the items below and tell me Ratio IC50 for each one, in order.
1. CC(F)c1c(-c2nnc(C(C)(C)C)o2)nn(-c2ccc(Cl)cc2Cl)c1-c1ccc(Cl)cc1 (stereo unspecified)
2. CC(C)(C)c1nnc(-c2nn(-c3ccc(Cl)cc3Cl)c(-c3ccc(Cl)cc3)c2COc2ccccc2)o1
3. CC(C)(C)c1nnc(-c2nn(-c3ccc(Cl)cc3Cl)c(-c3ccc(Cl)cc3)c2CF)o1
4. CC(C)c1c(-c2nnc(C(C)(C)C)o2)nn(-c2ccc(Cl)cc2Cl)c1-c1ccc(Cl)cc1

Return:
[66, 204, 76, 157]

Go through the items and report each one's Ratio IC50.
1. CCc1c(-c2nnc(C(C)(C)C)o2)nn(-c2ccc(Cl)cc2Cl)c1-c1ccc(Cl)cc1
2. CC1(c2nnc(-c3nn(-c4ccc(Cl)cc4Cl)c(-c4ccc(Br)cc4)c3Cn3cncn3)o2)CC1
3. FC(F)(F)C1(c2nnc(-c3nn(-c4ccc(Cl)cc4Cl)c(-c4ccc(Cl)cc4)c3Cn3cncn3)o2)CC1
4. CC(C)(C)c1nnc(-c2nn(-c3ccc(Cl)cc3Cl)c(-c3ccc(Cl)cc3)c2C(C)(C)O)o1
5. FC(F)(F)C1(c2nnc(-c3nn(-c4ccc(Cl)cc4Cl)c(-c4ccc(Br)cc4)c3Cn3cncn3)o2)CC1
6. CC(C)(C)c1nnc(-c2nn(-c3ccc(Cl)cc3Cl)c(-c3ccc(Cl)cc3)c2CO)o1

Return:
[355, 145, 1160, 74, 1020, 124]

Answer for every listed entry: what is its Ratio IC50? The entries follow.
1. Clc1ccc(-n2nc(-c3nnc(C4(c5ccccc5)CC4)o3)c(Cn3cncn3)c2-c2ccc(Br)cc2)c(Cl)c1
2. CC1(c2nnc(-c3nn(-c4ccc(Cl)cc4Cl)c(-c4ccc(Cl)cc4)c3Cn3cncn3)o2)CC1
3. Clc1ccc(C2(c3nnc(-c4nn(-c5ccc(Cl)cc5Cl)c(-c5ccc(Br)cc5)c4Cn4cncn4)o3)CC2)cc1
4. COCc1c(-c2nnc(C(C)(C)C)o2)nn(-c2ccc(Cl)cc2Cl)c1-c1ccc(Cl)cc1
5. COC(=O)NCc1c(-c2nnc(C(C)(C)C)o2)nn(-c2ccc(Cl)cc2Cl)c1-c1ccc(Cl)cc1

Return:
1. 252
2. 482
3. 1840
4. 24
5. 107

Batch: Ratio IC50 for all items listed.
1. C=C(C)c1c(-c2nnc(C(C)(C)C)o2)nn(-c2ccc(Cl)cc2Cl)c1-c1ccc(Cl)cc1
2. CC(C)(C)c1nnc(-c2nn(-c3ccc(Cl)cc3Cl)c(-c3ccc(Cl)cc3)c2COc2ccccn2)o1

Return:
1: 358; 2: 84

Working through the 4 molecules below one at a time, give Ratio IC50 for each.
1. CC(C)(C)c1nnc(-c2nn(-c3ccc(Cl)cc3Cl)c(-c3ccc(Cl)cc3)c2Cn2cnnn2)o1
2. CC(C)(C)c1nnc(-c2nn(-c3ccc(Cl)cc3Cl)c(-c3ccc(Cl)cc3)c2Cn2cncn2)o1
3. Cc1c(-c2nnc(C(C)(C)C)o2)nn(-c2ccc(Cl)cc2Cl)c1-c1ccc(Cl)cc1
4. CC(C)(C)c1nnc(-c2nn(-c3ccc(Cl)cc3Cl)c(-c3ccc(Cl)cc3)c2Cn2ccnn2)o1

Return:
1. 96
2. 341
3. 186
4. 88

Give Ratio IC50 for each of the items listed below.
1. Cc1ccc(C2(c3nnc(-c4nn(-c5ccc(Cl)cc5Cl)c(-c5ccc(Br)cc5)c4Cn4cncn4)o3)CC2)cc1
2. C=Cc1c(-c2nnc(C(C)(C)C)o2)nn(-c2ccc(Cl)cc2Cl)c1-c1ccc(Cl)cc1
3. CC(C)(C)c1nnc(-c2nn(-c3ccc(Cl)cc3Cl)c(-c3ccc(Cl)cc3)c2CC#N)o1

Return:
432
62
88

For each of the molecules below, note its Ratio IC50.
1. Clc1ccc(-c2c(Cn3cncn3)c(-c3nnc(C4(c5ccc(Cl)cc5)CC4)o3)nn2-c2ccc(Cl)cc2Cl)cc1
2. CC(C)(C)c1nnc(-c2nn(-c3ccc(Cl)cc3Cl)c(-c3ccc(Br)cc3)c2Cn2cncn2)o1
3. CC(=O)OCc1c(-c2nnc(C(C)(C)C)o2)nn(-c2ccc(Cl)cc2Cl)c1-c1ccc(Cl)cc1
4. CC(C)(C)c1nnc(-c2nn(-c3ccc(Cl)cc3Cl)c(-c3ccc(Cl)cc3)c2Cn2ncnn2)o1
5. CC(C)(C)c1nnc(-c2nn(-c3ccc(Cl)cc3Cl)c(-c3ccc(Cl)cc3)c2Cn2ccnc2)o1
6. CC(=O)SCc1c(-c2nnc(C(C)(C)C)o2)nn(-c2ccc(Cl)cc2Cl)c1-c1ccc(Cl)cc1

Return:
[670, 187, 58, 202, 20, 71]

I would be grateful if you could provide Ratio IC50 for each of the following entries.
1. Cc1ccc(C2(c3nnc(-c4nn(-c5ccc(Cl)cc5Cl)c(-c5ccc(Cl)cc5)c4Cn4cncn4)o3)CC2)cc1
2. CC(C)(C)c1nnc(-c2nn(-c3ccc(Cl)cc3Cl)c(-c3ccc(Cl)cc3)c2Cn2cccn2)o1
3. CC(C)(C)c1nnc(-c2nn(-c3ccc(Cl)cc3Cl)c(-c3ccc(Cl)cc3)c2C2CC2)o1
4. CC(O)c1c(-c2nnc(C(C)(C)C)o2)nn(-c2ccc(Cl)cc2Cl)c1-c1ccc(Cl)cc1 (stereo unspecified)

Return:
1140
48
110
187

====

Target: Cannabinoid receptor 2 (Homo sapiens, UniProt P34972)
Sequence (P34972 whole entry): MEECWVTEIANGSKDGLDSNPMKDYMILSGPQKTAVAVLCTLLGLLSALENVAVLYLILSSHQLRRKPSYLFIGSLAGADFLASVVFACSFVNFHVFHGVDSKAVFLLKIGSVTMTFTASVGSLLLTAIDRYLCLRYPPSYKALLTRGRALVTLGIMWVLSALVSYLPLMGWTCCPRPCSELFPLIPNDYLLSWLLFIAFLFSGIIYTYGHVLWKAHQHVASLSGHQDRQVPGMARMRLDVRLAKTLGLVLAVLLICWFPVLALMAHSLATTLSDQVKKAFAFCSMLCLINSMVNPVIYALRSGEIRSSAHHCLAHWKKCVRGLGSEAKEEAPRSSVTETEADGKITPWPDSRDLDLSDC
Experiment: Displacement of [3H]WIN-55212-2 from human CB2 receptor expressed in CHOK1 cells by liquid scintillation spectrometry
Assay type: cell-based, CHO-K1
endpoint-name: log10 IC50 (log10 of the value in nM)
A difference of one corresponds to tenfold IC50; all values are log10 with IC50 in nM.

• CC(C)(C)c1nnc(-c2nn(-c3ccc(Cl)cc3Cl)c(-c3ccc(Cl)cc3)c2CO)o1 = 3.26
• CC(C)(C)c1nnc(-c2nn(-c3ccc(Cl)cc3Cl)c(-c3ccc(Cl)cc3)c2C(C)(C)O)o1 = 3.22
• Clc1ccc(C2(c3nnc(-c4nn(-c5ccc(Cl)cc5Cl)c(-c5ccc(Br)cc5)c4Cn4cncn4)o3)CC2)cc1 = 3.02

I have 4 compounds here; please give me log10 IC50 for each one.
1. CC(C)(C)c1nnc(-c2nn(-c3ccc(Cl)cc3Cl)c(-c3ccc(Cl)cc3)c2CF)o1
2. CC(=O)SCc1c(-c2nnc(C(C)(C)C)o2)nn(-c2ccc(Cl)cc2Cl)c1-c1ccc(Cl)cc1
3. CC(C)(C)c1nnc(-c2nn(-c3ccc(Cl)cc3Cl)c(-c3ccc(Cl)cc3)c2Cn2cncn2)o1
4. CC(C)(C)c1nnc(-c2nn(-c3ccc(Cl)cc3Cl)c(-c3ccc(Cl)cc3)c2Cn2cnnn2)o1

Return:
1: 3.05; 2: 3.17; 3: 2.91; 4: 2.87

Dear colleague, could you please provide log10 IC50 for the compounds listed below?
1. C=Cc1c(-c2nnc(C(C)(C)C)o2)nn(-c2ccc(Cl)cc2Cl)c1-c1ccc(Cl)cc1
2. CC(C)c1c(-c2nnc(C(C)(C)C)o2)nn(-c2ccc(Cl)cc2Cl)c1-c1ccc(Cl)cc1
3. CC(C)(C)c1nnc(-c2nn(-c3ccc(Cl)cc3Cl)c(-c3ccc(Cl)cc3)c2COc2ccccn2)o1
4. CC1(c2nnc(-c3nn(-c4ccc(Cl)cc4Cl)c(-c4ccc(Br)cc4)c3Cn3cncn3)o2)CC1

Return:
1: 3.02; 2: 3.45; 3: 3.31; 4: 2.61

Required: log10 IC50, one value per compound below.
1. CC(C)(C)c1nnc(-c2nn(-c3ccc(Cl)cc3Cl)c(-c3ccc(Cl)cc3)c2CC#N)o1
2. COCc1c(-c2nnc(C(C)(C)C)o2)nn(-c2ccc(Cl)cc2Cl)c1-c1ccc(Cl)cc1
3. CC1(c2nnc(-c3nn(-c4ccc(Cl)cc4Cl)c(-c4ccc(Cl)cc4)c3Cn3cncn3)o2)CC1
4. Clc1ccc(-n2nc(-c3nnc(C4(c5ccccc5)CC4)o3)c(Cn3cncn3)c2-c2ccc(Br)cc2)c(Cl)c1
5. FC(F)(F)C1(c2nnc(-c3nn(-c4ccc(Cl)cc4Cl)c(-c4ccc(Cl)cc4)c3Cn3cncn3)o2)CC1

Return:
1: 2.73; 2: 2.57; 3: 2.98; 4: 2.38; 5: 3.24

====

Molecular target: Cannabinoid receptor 1 (Rattus norvegicus)
endpoint-name: pIC50
Give bare numbers, as −log10 of the molar value.

# annotated cases, reported pIC50 shown
- FC(F)(F)C1(c2nnc(-c3nn(-c4ccc(Cl)cc4Cl)c(-c4ccc(Br)cc4)c3Cn3cncn3)o2)CC1: 9.03
- CCCCCc1nnc(-c2nn(-c3ccc(Cl)cc3Cl)c(-c3ccc(Cl)cc3)c2C)o1: 7.14
- Cc1c(-c2nnc(C(C)(C)c3ccc(Cl)cc3)o2)nn(-c2ccc(Cl)cc2Cl)c1-c1ccc(Cl)cc1: 8.32
- Cc1c(-c2nnc(C(C)(C)C)o2)nn(-c2ccc(Cl)cc2Cl)c1-c1ccc(Cl)cc1: 8.12
- CC1(c2nnc(-c3nn(-c4ccc(Cl)cc4Cl)c(-c4ccc(Cl)cc4)c3Cn3cncn3)o2)CC1: 8.70
- Cc1c(-c2nnc(C(C)c3ccccc3)o2)nn(-c2ccc(Cl)cc2Cl)c1-c1ccc(Cl)cc1 (stereo not drawn): 7.96

Required: pIC50, one value per compound below.
1. Cc1ccc(C2(c3nnc(-c4nn(-c5ccc(Cl)cc5Cl)c(-c5ccc(Cl)cc5)c4Cn4cncn4)o3)CC2)cc1
2. Cc1ccc(C2(c3nnc(-c4nn(-c5ccc(Cl)cc5Cl)c(-c5ccc(Br)cc5)c4Cn4cncn4)o3)CC2)cc1

Return:
8.96
8.87
